Data origin: the array DNA melting data of Ke et al. (doi:10.1101/2024.01.08.574731)

# test.summary: folding enthalpy; higher = less favourable; fluorescence melt of hairpins on a sequencing array, two-state fit
# assay.setup: sodium 0.088 M
Recorded measurements of folding enthalpy, one per entry
measurement.name: folding enthalpy (kcal/mol)

sequence	reported.value
GTCAGGCGAAAGCCGGAC (((.(((....))).)))	-24.7
GATTGGCGAAAGCCATC (((.(((....))))))	-9.48
GGAGGCGAAAGCCCTCC ((((((....))).)))	-18.1
GCTCGCGAAAGCGGAGC ((((((....))).)))	-22.9
GCGGGAGGAAACTCTCGC (((.(((....))).)))	-37.2
GCCCTCGAAAGAGTAGGC ((((((....)))..)))	-29.5

* * *

# test.summary: folding enthalpy; higher = less favourable; fluorescence melt of hairpins on a sequencing array, two-state fit
# assay.setup: sodium 0.088 M
Below is a list of entries, each paired with its recorded folding enthalpy value.

sequence	folding enthalpy (kcal/mol)
GAACCCCGAAAGGGATTC (((.(((....))).)))	-28.5
GTGTTGGGAAACTAACAC (((((.(....).)))))	-36.4
GATCTGTAACCAGATC ((((((....))))))	-29.3
GCTTCGGGAAACCAAAGC ((((.((....)).))))	-28.7
GGTAAGCGAAAGCTACC (((.(((....))))))	-26.7
GCTTACGAAAGTAAAAGC ((((((....)))..)))	-27.5
GTCGACCGAAAGGTTGAC (((.(((....))).)))	-34.8
GCGATAATCGC ((((...))))	-20.7
GTAGTCGAAAGACTCTAC ((((((....)))..)))	-12.8
GAACGAGGAAACTCGTCC (.(((((....))))).)	-13.7
GGTTTCGGAAACGAAGCC ((.((((....)))).))	-28.2
GTACGCGAAAGCGTTTAC ((((((....)))..)))	-7.31
GATCATCGAATGATC ((((((...))))))	-25.6
GTACCAGGAAACCGGTAC (((((.(....).)))))	-35.7
GATCCTCGTAAGGATC ((((((....))))))	-35.3
GGTCCACGAAAGTGACC (((.(((....))))))	-24.4
GCTCGATCGAAAGATAGC (((..(((....))))))	-11.7
GTGGTGGGAAACCATCAC (((.(((....))).)))	-43.1
GACGTTGAAAAACGTC ((((((....))))))	-33.9
GTAGGGTCGAAAGACTAC (((..(((....))))))	-12.2
GATCACACAGGTGATC ((((((....))))))	-44.3
GAGATTGAAAAATCTC ((((((....))))))	-33.8
GCATCCGGAAACAGATGC (((((.(....).)))))	-36.8
GTGCGTACGAAAGTACAC (((..(((....))))))	-10.5
GATCCCTAGTGGGATC ((((((....))))))	-38.7
GATCAATAACTTGATC ((((((....))))))	-31.6
GTCCAAACGAAAGTTGAC (((..(((....))))))	-16.8
GCTATCCGAAAGGACAGC (((.(((....))).)))	-31.7
GTGTCACCGAAAGGTCAC (((..(((....))))))	-20.5
GGACGCCGAAAGGCTTCC (((.(((....))).)))	-23.4
CGAGCTCGGAAACGATCG (((..(((....))))))	-6.9
GCAGGCCGAAAGGCTGC (((.(((....))))))	-22.2
GATCCCGTGGGGATC ((((((...))))))	-32.4
GATCGGTTCTCCGATC ((((((....))))))	-44.3
GCAGGGCGAAAGCACAGC ((.(.((....)).).))	-20.6
GCGGTCACCGC ((((...))))	-23.8
CGCCCGGAAACGGCTGCG ((((((....)))..)))	-21.1
GGTATGGGAAACTATACC (((((.(....).)))))	-26.6
GATCACGTTCGTGATC ((((((....))))))	-39.4
GTGTTGGCGAAAGCCCAC (((..(((....))))))	-15.6
GATCCAACTCTGGATC ((((((....))))))	-30.9
GGCATCGAAAGATAAGCC ((((((....)))..)))	-27.9
GTGCTTGGAAACGAGTAC ((.((.(....).)).))	-19.3
GAACGCCGAAAGGCTTC (((.(((....))))))	-14.1
GATCAGTTAGCTGATC ((((((....))))))	-40.2
GTTATTCGAAAGAACAAC (((.(((....))).)))	-20.6
GATCTTGGAAACGAGATC (((((.(....).)))))	-36.7
GCGAGTTTCGC ((((...))))	-17.3
GATCGAGGGATCGATC ((((((....))))))	-34.2
GCATCGGAAACGATGC ((((((....))))))	-35.8
GGCGAGGGAAACCTCGTC (.(((((....))))).)	-36.4

* * *

# test.summary: melting temperature; fluorescence melt of hairpins on a sequencing array, two-state fit, raised by 9.35 °C to match UV melts
# assay.setup: sodium 0.088 M
measurement.name: Tm

sequence	reported.value
GGTTATGGAAACATAATC (.(((((....))))).)	36 °C
GGGAGTGGAAACACTTCC ((.((((....)))).))	50.5 °C
GGCACGGGAAACCATGCC ((((.((....)).))))	49.3 °C
GCATGCCGAAAGGCTTGC (((.(((....))).)))	66.2 °C
GATACTGGAAACAGCATC (((.(((....))).)))	34.2 °C
GGTTCGGGAAACCGAATC (.(((((....))))).)	50.6 °C
ATTCTGAAAAGAAT (((((....)))))	32.2 °C
GCTGAGGCGAAAGCCAGC (((..(((....))))))	52.8 °C
GCTCACGAAAGTGATAGC ((((((....)))..)))	47.4 °C
GACGCCGGAAACGGTGTC (((.(((....))).)))	63.9 °C
GCTGCCGGAAACGGTGGC ((..(((....)))..))	55.1 °C
GTGTCCGAAAGGAAGCAC ((((((....)))..)))	38.6 °C
GGGAGACGAAAGTCACCC (((.(((....))).)))	58.2 °C
GGAGCCGAAAGGCAGTCC ((((((....)))..)))	36.1 °C
GCGTCGCGAAAGCGCAGC ((..(((....)))..))	57.5 °C
GTTAAAGAAATTTAAC ((((((....))))))	29.6 °C
GACGTACGAAAGTATGTC (((.(((....))).)))	54.6 °C
GAGGAGACGAAAGTCCTC (((..(((....))))))	40.8 °C
GGTGGCGAAAGCCAGACC ((((((....)))..)))	46.9 °C
GCTTGGGGAAACTCAGGC ((.((.(....).)).))	36.6 °C
GATCTACCTCTAGATC ((((((....))))))	37.8 °C
CGCACGGAAACGTGTGCG ((((((....)))..)))	57.5 °C
CGCCAGAAATGGCG (((((....)))))	66.4 °C
GTACGACGAAAGTCCTAC (((.(((....))).)))	31.9 °C
GATCACCAGTGTGATC ((((((....))))))	53.3 °C

* * *

Here, each record is paired with measured Tm data.
# test.summary: melting temperature; fluorescence melt of hairpins on a sequencing array, two-state fit, raised by 9.35 °C to match UV melts
# assay.setup: sodium 0.088 M

sequence	Tm
GTAACGGGAAACCGTTGC (.(((((....))))).)	52 °C
GCAGCCGAAAGGCGATGC ((((((....)))..)))	53.2 °C
CGTGTTCGGAAACGAACG (((..(((....))))))	42.1 °C
GGCAGCGAAAGCTAAGCC ((((((....)))..)))	55.6 °C
GACTACGAAAGTAACGTC ((((((....)))..)))	31.8 °C
CTCTGGAAACAGAG (((((....)))))	46.4 °C
GGCGTCGAAAGACACGCC ((((((....)))..)))	55 °C
GGAAATGGAAACATCTCC (((.(((....))).)))	25.1 °C
GGTAACGAAAGTTGACC ((((((....))).)))	39.2 °C
GTGCCCGAAAGGGTACAC ((((((....)))..)))	61.6 °C
GGGACCGAAAGGTGACCC ((((((....)))..)))	45.6 °C
GCTCCGCGAAAGCGTAGC (((.(((....))).)))	51.8 °C
